Origin of the recorded values: ChEMBL document CHEMBL4680228

Protocol summary: cells
Cond: Homo sapiens, NCI-H1688
Description: Antiproliferative activity against human NCI-H1688 cells assessed as inhibition of cell proliferation
Would you kindly list pIC50 for each of these compounds?
Give bare numbers, as −log10 of the molar value.

INPUT: Any idea what pIC50 was measured for COc1cc(N2CCC(NC(=O)CCCCCCCCCC(=O)N[C@H](C(=O)N3C[C@H](O)C[C@H]3C(=O)NCc3ccc(-c4scnc4C)cc3)C(C)(C)C)CC2)ccc1Nc1ncc(Cl)c(Nc2ccccc2P(C)(C)=O)n1 ?
OUTPUT: 6.59

# context switch: different compound, same pIC50
INPUT: Any idea what pIC50 was measured for COc1cc(N2CCC(N3CCN(C)CC3)CC2)ccc1Nc1ncc(Cl)c(Nc2ccccc2P(C)(C)=O)n1 [BRIGATINIB] ?
OUTPUT: 6.16

---

Tested on: SR
Protocol summary: Antiproliferative activity against human SR cells assessed as reduction in cell growth
Type: functional, cell-based
Activity calls are given as the source filed them. No cut-off for these calls is given here.
Allowed answers: YES for active, NO for inactive

INPUT: For this compound, state the assay outcome: COc1cc(N2CCN(C(=O)CCOCCOCCOCCC(=O)N[C@H](C(=O)N3C[C@H](O)C[C@H]3C(=O)NCc3ccc(-c4scnc4C)cc3)C(C)(C)C)CC2)ccc1Nc1ncc(Cl)c(Nc2ccccc2P(C)(C)=O)n1
OUTPUT: NO

INPUT: For this compound, state the assay outcome: COc1cc(N2CCC(N3CCN(C(=O)CCOCCOCCOCCOCCOCCC(=O)N[C@H](C(=O)N4C[C@H](O)C[C@H]4C(=O)NCc4ccc(-c5scnc5C)cc4)C(C)(C)C)CC3)CC2)ccc1Nc1ncc(Cl)c(Nc2ccccc2P(C)(C)=O)n1
OUTPUT: NO

INPUT: For this compound, state the assay outcome: COc1cc(N2CCN(C(=O)CCCCCCCCC(=O)N[C@H](C(=O)N3C[C@H](O)C[C@H]3C(=O)NCc3ccc(-c4scnc4C)cc3)C(C)(C)C)CC2)ccc1Nc1ncc(Cl)c(Nc2ccccc2P(C)(C)=O)n1
OUTPUT: YES

INPUT: For this compound, state the assay outcome: COc1cc(N2CCC(NC(=O)CCCC(=O)N[C@H](C(=O)N3C[C@H](O)C[C@H]3C(=O)NCc3ccc(-c4scnc4C)cc3)C(C)(C)C)CC2)ccc1Nc1ncc(Cl)c(Nc2ccccc2P(C)(C)=O)n1
OUTPUT: YES

Lab note: next compound to report on.
INPUT: For this compound, state the assay outcome: COc1cc(N2CCN(C(=O)CCCCCCCC(=O)N[C@H](C(=O)N3C[C@H](O)C[C@H]3C(=O)NCc3ccc(-c4scnc4C)cc3)C(C)(C)C)CC2)ccc1Nc1ncc(Cl)c(Nc2ccccc2P(C)(C)=O)n1
OUTPUT: YES

---

Test system: SR
Protocol summary: Antiproliferative activity against human SR cells assessed as reduction in cell growth
Assay type: functional, cell-based
Calls of active or inactive are those of the source. The rule behind the calls is not given here.
Value kind: Activity

INPUT: Any idea what Activity was measured for COc1cc(N2CCC(N3CCN(C(=O)CCCCCCCCC(=O)N[C@H](C(=O)N4C[C@H](O)C[C@H]4C(=O)NCc4ccc(-c5scnc5C)cc4)C(C)(C)C)CC3)CC2)ccc1Nc1ncc(Cl)c(Nc2ccccc2P(C)(C)=O)n1 ?
OUTPUT: Active

INPUT: Any idea what Activity was measured for COc1cc(N2CCN(C(=O)CCCCCC(=O)N[C@H](C(=O)N3C[C@H](O)C[C@H]3C(=O)NCc3ccc(-c4scnc4C)cc3)C(C)(C)C)CC2)ccc1Nc1ncc(Cl)c(Nc2ccccc2P(C)(C)=O)n1 ?
OUTPUT: Active

---

Would you kindly list DC50 for each of these molecules?
Target system: von Hippel-Lindau disease tumor suppressor/ALK tyrosine kinase receptor/Nucleophosmin (Homo sapiens, UniProt Q9UM73+P06748+P40337)
Sequence (Q9UM73 whole entry, the tested form may be a part): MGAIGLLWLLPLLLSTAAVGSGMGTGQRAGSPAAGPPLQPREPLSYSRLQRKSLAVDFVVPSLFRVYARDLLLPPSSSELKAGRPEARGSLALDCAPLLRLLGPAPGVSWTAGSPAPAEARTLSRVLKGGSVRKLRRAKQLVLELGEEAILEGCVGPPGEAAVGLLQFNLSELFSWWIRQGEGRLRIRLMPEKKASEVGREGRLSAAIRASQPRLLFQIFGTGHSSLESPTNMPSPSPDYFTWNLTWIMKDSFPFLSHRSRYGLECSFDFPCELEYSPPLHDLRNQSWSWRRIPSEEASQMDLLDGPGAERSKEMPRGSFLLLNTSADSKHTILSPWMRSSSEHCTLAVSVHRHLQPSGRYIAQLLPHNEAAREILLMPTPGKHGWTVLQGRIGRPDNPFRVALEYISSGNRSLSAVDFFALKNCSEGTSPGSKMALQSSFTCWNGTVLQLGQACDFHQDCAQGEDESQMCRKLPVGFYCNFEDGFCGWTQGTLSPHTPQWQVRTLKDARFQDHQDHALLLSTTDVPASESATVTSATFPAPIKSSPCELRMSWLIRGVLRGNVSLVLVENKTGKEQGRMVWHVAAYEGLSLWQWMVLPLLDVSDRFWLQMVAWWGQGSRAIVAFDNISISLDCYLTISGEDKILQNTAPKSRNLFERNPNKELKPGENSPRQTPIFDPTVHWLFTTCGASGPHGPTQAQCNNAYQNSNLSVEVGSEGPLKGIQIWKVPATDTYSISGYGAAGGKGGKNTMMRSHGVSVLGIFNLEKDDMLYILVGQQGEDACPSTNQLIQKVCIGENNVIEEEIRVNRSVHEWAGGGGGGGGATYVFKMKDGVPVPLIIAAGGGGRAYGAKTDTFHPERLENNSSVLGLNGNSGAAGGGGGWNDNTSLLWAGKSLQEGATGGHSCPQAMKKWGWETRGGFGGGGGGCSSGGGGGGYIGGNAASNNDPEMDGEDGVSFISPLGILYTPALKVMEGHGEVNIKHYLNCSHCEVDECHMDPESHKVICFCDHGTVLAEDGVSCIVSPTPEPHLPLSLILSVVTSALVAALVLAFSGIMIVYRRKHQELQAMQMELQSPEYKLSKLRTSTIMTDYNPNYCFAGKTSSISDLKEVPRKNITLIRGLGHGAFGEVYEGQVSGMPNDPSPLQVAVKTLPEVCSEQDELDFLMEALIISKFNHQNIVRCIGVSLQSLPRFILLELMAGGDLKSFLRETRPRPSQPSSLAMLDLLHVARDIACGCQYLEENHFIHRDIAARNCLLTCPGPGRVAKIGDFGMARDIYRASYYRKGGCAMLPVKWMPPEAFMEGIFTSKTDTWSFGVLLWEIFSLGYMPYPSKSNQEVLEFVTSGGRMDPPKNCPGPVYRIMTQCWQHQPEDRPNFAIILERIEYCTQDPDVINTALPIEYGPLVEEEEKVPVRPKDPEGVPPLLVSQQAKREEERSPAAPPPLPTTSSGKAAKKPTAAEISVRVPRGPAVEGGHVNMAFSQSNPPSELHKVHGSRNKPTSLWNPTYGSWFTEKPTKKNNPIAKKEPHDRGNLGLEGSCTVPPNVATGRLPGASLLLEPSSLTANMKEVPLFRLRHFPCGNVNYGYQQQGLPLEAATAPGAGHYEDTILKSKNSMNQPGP
Sequence (P06748 whole entry, the tested form may be a part): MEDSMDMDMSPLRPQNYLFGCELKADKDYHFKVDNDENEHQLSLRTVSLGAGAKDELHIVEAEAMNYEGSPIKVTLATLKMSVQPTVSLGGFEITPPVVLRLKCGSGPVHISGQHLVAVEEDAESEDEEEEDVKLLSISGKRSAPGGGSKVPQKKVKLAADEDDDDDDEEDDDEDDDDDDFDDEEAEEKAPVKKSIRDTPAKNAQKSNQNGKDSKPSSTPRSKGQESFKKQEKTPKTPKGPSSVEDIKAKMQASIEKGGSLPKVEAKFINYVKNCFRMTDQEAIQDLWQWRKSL
Sequence (P40337 whole entry, the tested form may be a part): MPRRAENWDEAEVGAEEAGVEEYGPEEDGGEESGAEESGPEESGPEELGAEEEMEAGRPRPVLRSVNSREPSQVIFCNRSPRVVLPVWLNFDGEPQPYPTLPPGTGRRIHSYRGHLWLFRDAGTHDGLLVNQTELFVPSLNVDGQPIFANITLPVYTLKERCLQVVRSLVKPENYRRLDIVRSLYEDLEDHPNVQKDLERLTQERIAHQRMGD
Protocol summary: Protac activity at VHL/NPM-ALK fusion protein in human SR cells assessed as degradation of ALK
Format: cell-based
Give bare numbers, in nM.

INPUT: Any idea what DC50 was measured for COc1cc(N2CCC(N3CCN(C(=O)CCCCCCCCC(=O)N[C@H](C(=O)N4C[C@H](O)C[C@H]4C(=O)NCc4ccc(-c5scnc5C)cc4)C(C)(C)C)CC3)CC2)ccc1Nc1ncc(Cl)c(Nc2ccccc2P(C)(C)=O)n1 ?
OUTPUT: 7.5

INPUT: Any idea what DC50 was measured for COc1cc(N2CCC(NC(=O)CCCCCCCCC(=O)N[C@H](C(=O)N3C[C@H](O)C[C@H]3C(=O)NCc3ccc(-c4scnc4C)cc3)C(C)(C)C)CC2)ccc1Nc1ncc(Cl)c(Nc2ccccc2P(C)(C)=O)n1 ?
OUTPUT: 7.2

INPUT: Any idea what DC50 was measured for COc1cc(N2CCC(NC(=O)CCCCCCCCCC(=O)N[C@H](C(=O)N3C[C@H](O)C[C@H]3C(=O)NCc3ccc(-c4scnc4C)cc3)C(C)(C)C)CC2)ccc1Nc1ncc(Cl)c(Nc2ccccc2P(C)(C)=O)n1 ?
OUTPUT: 7

INPUT: Any idea what DC50 was measured for COc1cc(N2CCC(N3CCN(C(=O)CCCCCCC(=O)N[C@H](C(=O)N4C[C@H](O)C[C@H]4C(=O)NCc4ccc(-c5scnc5C)cc4)C(C)(C)C)CC3)CC2)ccc1Nc1ncc(Cl)c(Nc2ccccc2P(C)(C)=O)n1 ?
OUTPUT: 11.4

INPUT: Any idea what DC50 was measured for COc1cc(N2CCC(NC(=O)CCCCCCCC(=O)N[C@H](C(=O)N3C[C@H](O)C[C@H]3C(=O)NCc3ccc(-c4scnc4C)cc3)C(C)(C)C)CC2)ccc1Nc1ncc(Cl)c(Nc2ccccc2P(C)(C)=O)n1 ?
OUTPUT: 20.9

Below are 3 molecules. Give each one its DC50.
1. COc1cc(N2CCC(N3CCN(C(=O)CCCCCCCC(=O)N[C@H](C(=O)N4C[C@H](O)C[C@H]4C(=O)NCc4ccc(-c5scnc5C)cc4)C(C)(C)C)CC3)CC2)ccc1Nc1ncc(Cl)c(Nc2ccccc2P(C)(C)=O)n1
2. COc1cc(N2CCC(NC(=O)CCCCCCC(=O)N[C@H](C(=O)N3C[C@H](O)C[C@H]3C(=O)NCc3ccc(-c4scnc4C)cc3)C(C)(C)C)CC2)ccc1Nc1ncc(Cl)c(Nc2ccccc2P(C)(C)=O)n1
3. COc1cc(N2CCN(C(=O)CCCCCCCC(=O)N[C@H](C(=O)N3C[C@H](O)C[C@H]3C(=O)NCc3ccc(-c4scnc4C)cc3)C(C)(C)C)CC2)ccc1Nc1ncc(Cl)c(Nc2ccccc2P(C)(C)=O)n1

OUTPUT:
1: 25.1; 2: 9.1; 3: 15

---

Tested on: SR
Protocol summary: Antiproliferative activity against human SR cells assessed as reduction in cell growth
Assay type: functional, cell-based
Active and inactive are the calls of the source. No cut-off for these calls is given here.
Value kind: Activity

INPUT: Request: Activity, test system SR, entry COc1cc(N2CCN(C(=O)CCCC(=O)N[C@H](C(=O)N3C[C@H](O)C[C@H]3C(=O)NCc3ccc(-c4scnc4C)cc3)C(C)(C)C)CC2)ccc1Nc1ncc(Cl)c(Nc2ccccc2P(C)(C)=O)n1
OUTPUT: Active

INPUT: Request: Activity, test system SR, entry COc1cc(N2CCC(NC(=O)CCC(=O)N[C@H](C(=O)N3C[C@H](O)C[C@H]3C(=O)NCc3ccc(-c4scnc4C)cc3)C(C)(C)C)CC2)ccc1Nc1ncc(Cl)c(Nc2ccccc2P(C)(C)=O)n1
OUTPUT: Active

INPUT: Request: Activity, test system SR, entry COc1cc(N2CCC(N3CCN(C(=O)CCCCCCC(=O)N[C@H](C(=O)N4C[C@H](O)C[C@H]4C(=O)NCc4ccc(-c5scnc5C)cc4)C(C)(C)C)CC3)CC2)ccc1Nc1ncc(Cl)c(Nc2ccccc2P(C)(C)=O)n1
OUTPUT: Active

---

System: SR
Protocol summary: Antiproliferative activity against human SR cells assessed as reduction in cell growth
Assay type: functional, cell-based
The source made the active and inactive calls. No cut-off for these calls is given here.
Allowed answers: 1 = active, 0 = inactive

These recorded examples may help you get a feel for the data.
INPUT: For this molecule, state the assay outcome: COc1cc(N2CCC(N3CCN(C(=O)CCCCCCCC(=O)N[C@H](C(=O)N4C[C@H](O)C[C@H]4C(=O)NCc4ccc(-c5scnc5C)cc4)C(C)(C)C)CC3)CC2)ccc1Nc1ncc(Cl)c(Nc2ccccc2P(C)(C)=O)n1
OUTPUT: 1

INPUT: For this molecule, state the assay outcome: COc1cc(N2CCN(C(=O)CCOCCOCCOCCOCCOCCC(=O)N[C@H](C(=O)N3C[C@H](O)C[C@H]3C(=O)NCc3ccc(-c4scnc4C)cc3)C(C)(C)C)CC2)ccc1Nc1ncc(Cl)c(Nc2ccccc2P(C)(C)=O)n1
OUTPUT: 0

INPUT: For this molecule, state the assay outcome: COc1cc(N2CCN(C(=O)CCCCCCC(=O)N[C@H](C(=O)N3C[C@H](O)C[C@H]3C(=O)NCc3ccc(-c4scnc4C)cc3)C(C)(C)C)CC2)ccc1Nc1ncc(Cl)c(Nc2ccccc2P(C)(C)=O)n1
OUTPUT: 1

Lab note: next molecule to report on.
INPUT: For this molecule, state the assay outcome: COc1cc(N2CCC(N3CCN(C(=O)CCOCCOCCC(=O)N[C@H](C(=O)N4C[C@H](O)C[C@H]4C(=O)NCc4ccc(-c5scnc5C)cc4)C(C)(C)C)CC3)CC2)ccc1Nc1ncc(Cl)c(Nc2ccccc2P(C)(C)=O)n1
OUTPUT: 0
